Below: a set of entries, each annotated with reported viability at 28.5 h, 10 µM.
Method notes: in vitro
Stated conditions: human, hela cells, % viability
Your answer is read as %, so omit the unit and give the number.

Example results:
| Compound | viability at 28.5 h, 10 µM [%] |
| --- | --- |
| O=C(CCCOc1ccccc1)Nc1cccnc1N1CCNCC1 [CBK028258T] | 97.3 |
| COc1ccc(F)c(CN2CC3CCCN3C[C@@H]2C)c1 (stereo partly drawn) [CBK284549] | 86.9 |

# ---- query compound ----
viability at 28.5 h, 10 µM lookup needed for c1coc(-c2nccnc2NCCc2c[nH]c3ccccc23)c1 [CBK037316] , thanks.
95.2
